- Test: Biodistribution: organ distribution of F-18 signal in mice
- Format: in vivo, male NMRI mice
- Condition notes: thyroid, 240 min post i.v. injection
I'd appreciate it if you could supply Organ distribution of F-18 signal, thyroid values for the items below.
Answers are plain numbers, in % ID/g.

Solved cases below.
O=C(NCC(=O)N1CCN(c2ccc(OCc3ccccc3)cn2)CC1)c1ccnc([18F])c1 [Example 14f] = 0.16
O=C(NCC(=O)N1CCN(c2ccc(OCc3ccccc3)cc2)CC1)c1cccnc1[18F] [Example 12c] = 0.41
O=C(NCC(=O)N1CCN(c2ccc(OCc3ccccc3)cc2)CC1)c1cccc(OCC[18F])c1 = 0.56

Okay, here is my list. What is Organ distribution of F-18 signal, thyroid for each of these?
1. O=C(NCC(=O)N1CCN(c2ccc(OCc3ccccc3)cc2)CC1)c1ccc([18F])nc1 [Example 10e]
2. O=C(NCC(=O)N1CCN(c2ccc(OCc3ccccc3)cc2)CC1)c1ccnc([18F])c1 [Example 11c]

Reply text:
0.35
0.19

---

- Test: Biodistribution: organ distribution of F-18 signal in mice
- Format: in vivo, male NMRI mice
- Condition notes: muscle, 5 min post i.v. injection
I'd appreciate it if you could supply Organ distribution of F-18 signal, muscle values for the items below.
Numbers only, in % ID/g.

Solved cases below.
O=C(NCC(=O)N1CCN(c2ccc(OCc3ccccc3)cc2)CC1)c1cccnc1[18F] [Example 12c] = 17.41
O=C(NCC(=O)N1CCN(c2ccc(OCc3ccccc3)cc2)CC1)c1ccc([18F])nc1 [Example 10e] = 2.07
O=C(NCC(=O)N1CCN(c2ccc(OCc3ccccc3)cc2)CC1)c1ccnc([18F])c1 [Example 11c] = 2.54
O=C(NCC(=O)N1CCN(c2ccc(OCc3ccccc3)cn2)CC1)c1ccnc([18F])c1 [Example 14f] = 2.14

Inquiry: What value of Organ distribution of F-18 signal, muscle has been reported for the following compound? O=C(NCC(=O)N1CCN(c2ccc(OCc3ccccc3)cc2)CC1)c1cccc(OCC[18F])c1
Reply text: 3.17

---

I'd appreciate it if you could supply Organ distribution of F-18 signal, stomach values for the items below.
- Test: Biodistribution: organ distribution of F-18 signal in mice
- Type: in vivo, male NMRI mice
- Condition notes: stomach (without content), 2 min post i.v. injection
Record the result as a number with its unit.

Okay, here is my list. What is Organ distribution of F-18 signal, stomach for each of these?
1. O=C(NCC(=O)N1CCN(c2ccc(OCc3ccccc3)cc2)CC1)c1ccc([18F])nc1 [Example 10e]
2. O=C(NCC(=O)N1CCN(c2ccc(OCc3ccccc3)cc2)CC1)c1cccc(OCC[18F])c1
3. O=C(NCC(=O)N1CCN(c2ccc(OCc3ccccc3)cc2)CC1)c1cccnc1[18F] [Example 12c]
4. O=C(NCC(=O)N1CCN(c2ccc(OCc3ccccc3)cc2)CC1)c1ccnc([18F])c1 [Example 11c]

Reply text:
["3.69 % ID/g", "4.78 % ID/g", "3.14 % ID/g", "3.46 % ID/g"]

Inquiry: What value of Organ distribution of F-18 signal, stomach has been reported for the following compound? O=C(NCC(=O)N1CCN(c2ccc(OCc3ccccc3)cn2)CC1)c1ccnc([18F])c1 [Example 14f]
Reply text: 3.81 % ID/g

---

I'd appreciate it if you could supply Organ distribution of F-18 signal, skin values for the items below.
- Test: Biodistribution: organ distribution of F-18 signal in mice
- Assay type: in vivo, male NMRI mice
- Condition notes: skin, 5 min post i.v. injection
One number for each entry, in % ID/g.

Solved cases below.
O=C(NCC(=O)N1CCN(c2ccc(OCc3ccccc3)cc2)CC1)c1cccc(OCC[18F])c1 = 2.15
O=C(NCC(=O)N1CCN(c2ccc(OCc3ccccc3)cc2)CC1)c1cccnc1[18F] [Example 12c] = 1.23
O=C(NCC(=O)N1CCN(c2ccc(OCc3ccccc3)cc2)CC1)c1ccc([18F])nc1 [Example 10e] = 1.76
O=C(NCC(=O)N1CCN(c2ccc(OCc3ccccc3)cn2)CC1)c1ccnc([18F])c1 [Example 14f] = 1.84

Please find the next compound below.
Inquiry: What value of Organ distribution of F-18 signal, skin has been reported for the following compound? O=C(NCC(=O)N1CCN(c2ccc(OCc3ccccc3)cc2)CC1)c1ccnc([18F])c1 [Example 11c]
Reply text: 1.80

---

- Test: Biodistribution: organ distribution of F-18 signal in mice
- Format: in vivo, male NMRI mice
- Condition notes: intestine (with content), 5 min post i.v. injection
Measurement type: Organ distribution of F-18 signal, intestine (% ID/g)
Answers are plain numbers, in % ID/g.

Solved cases below.
O=C(NCC(=O)N1CCN(c2ccc(OCc3ccccc3)cn2)CC1)c1ccnc([18F])c1 [Example 14f] = 2.90
O=C(NCC(=O)N1CCN(c2ccc(OCc3ccccc3)cc2)CC1)c1cccnc1[18F] [Example 12c] = 2.44

Okay, here is my list. What is Organ distribution of F-18 signal, intestine for each of these?
1. O=C(NCC(=O)N1CCN(c2ccc(OCc3ccccc3)cc2)CC1)c1ccnc([18F])c1 [Example 11c]
2. O=C(NCC(=O)N1CCN(c2ccc(OCc3ccccc3)cc2)CC1)c1cccc(OCC[18F])c1
3. O=C(NCC(=O)N1CCN(c2ccc(OCc3ccccc3)cc2)CC1)c1ccc([18F])nc1 [Example 10e]

Reply text:
1: 2.66; 2: 1.87; 3: 2.40

---

- Test: Biodistribution: organ distribution of F-18 signal in mice
- Format: in vivo, male NMRI mice
- Condition notes: brain, 30 min post i.v. injection
Measurement type: Organ distribution of F-18 signal, brain

Okay, here is my list. What is Organ distribution of F-18 signal, brain for each of these?
1. O=C(NCC(=O)N1CCN(c2ccc(OCc3ccccc3)cc2)CC1)c1cccnc1[18F] [Example 12c]
2. O=C(NCC(=O)N1CCN(c2ccc(OCc3ccccc3)cc2)CC1)c1cccc(OCC[18F])c1 [Example 3g]
3. O=C(NCC(=O)N1CCN(c2ccc(OCc3ccccc3)cc2)CC1)c1ccc([18F])nc1 [Example 10e]
4. O=C(NCC(=O)N1CCN(c2ccc(OCc3ccccc3)cn2)CC1)c1ccnc([18F])c1 [Example 14f]

Reply text:
["1.28 % ID/g", "1.66 % ID/g", "1.44 % ID/g", "0.52 % ID/g"]

Inquiry: What value of Organ distribution of F-18 signal, brain has been reported for the following compound? O=C(NCC(=O)N1CCN(c2ccc(OCc3ccccc3)cc2)CC1)c1ccnc([18F])c1 [Example 11c]
Reply text: 1.00 % ID/g

---

- Test: Biodistribution: organ distribution of F-18 signal in mice
- Format: in vivo, male NMRI mice
- Condition notes: brain, 2 min post i.v. injection
I'd appreciate it if you could supply Organ distribution of F-18 signal, brain values for the items below.
Numbers only, in % ID/g.

O=C(NCC(=O)N1CCN(c2ccc(OCc3ccccc3)cc2)CC1)c1cccc(OCC[18F])c1 = 5.15
O=C(NCC(=O)N1CCN(c2ccc(OCc3ccccc3)cc2)CC1)c1cccnc1[18F] [Example 12c] = 5.37
O=C(NCC(=O)N1CCN(c2ccc(OCc3ccccc3)cn2)CC1)c1ccnc([18F])c1 [Example 14f] = 3.87

Okay, here is my list. What is Organ distribution of F-18 signal, brain for each of these?
1. O=C(NCC(=O)N1CCN(c2ccc(OCc3ccccc3)cc2)CC1)c1ccc([18F])nc1 [Example 10e]
2. O=C(NCC(=O)N1CCN(c2ccc(OCc3ccccc3)cc2)CC1)c1ccnc([18F])c1 [Example 11c]

Reply text:
1. 4.99
2. 5.54

---

- Test: Biodistribution: organ distribution of F-18 signal in mice
- Format: in vivo, male NMRI mice
- Condition notes: femur, 30 min post i.v. injection
I'd appreciate it if you could supply Organ distribution of F-18 signal, femur values for the items below.
Answers are plain numbers, in % ID/g.

O=C(NCC(=O)N1CCN(c2ccc(OCc3ccccc3)cc2)CC1)c1cccc(OCC[18F])c1 [Example 3g] = 1.05
O=C(NCC(=O)N1CCN(c2ccc(OCc3ccccc3)cc2)CC1)c1cccnc1[18F] [Example 12c] = 5.55
O=C(NCC(=O)N1CCN(c2ccc(OCc3ccccc3)cn2)CC1)c1ccnc([18F])c1 [Example 14f] = 0.55
O=C(NCC(=O)N1CCN(c2ccc(OCc3ccccc3)cc2)CC1)c1ccc([18F])nc1 [Example 10e] = 1.15

Please find the next compound below.
Inquiry: What value of Organ distribution of F-18 signal, femur has been reported for the following compound? O=C(NCC(=O)N1CCN(c2ccc(OCc3ccccc3)cc2)CC1)c1ccnc([18F])c1 [Example 11c]
Reply text: 0.68

---

I'd appreciate it if you could supply Organ distribution of F-18 signal, stomach values for the items below.
- Test: Biodistribution: organ distribution of F-18 signal in mice
- Assay type: in vivo, male NMRI mice
- Condition notes: stomach (without content), 30 min post i.v. injection
Give bare numbers, in % ID/g.

O=C(NCC(=O)N1CCN(c2ccc(OCc3ccccc3)cn2)CC1)c1ccnc([18F])c1 [Example 14f] = 2.88
O=C(NCC(=O)N1CCN(c2ccc(OCc3ccccc3)cc2)CC1)c1ccc([18F])nc1 [Example 10e] = 2.40
O=C(NCC(=O)N1CCN(c2ccc(OCc3ccccc3)cc2)CC1)c1cccc(OCC[18F])c1 = 2.20

Okay, here is my list. What is Organ distribution of F-18 signal, stomach for each of these?
1. O=C(NCC(=O)N1CCN(c2ccc(OCc3ccccc3)cc2)CC1)c1cccnc1[18F] [Example 12c]
2. O=C(NCC(=O)N1CCN(c2ccc(OCc3ccccc3)cc2)CC1)c1ccnc([18F])c1 [Example 11c]

Reply text:
1: 1.91; 2: 3.10
